System: SNB-19
Experiment: NCI tumour cell line growth inhibition, 48 h
Active and inactive are the calls of the source. Rule as the data show it: active = GI50 up to about 1.1 µM and inactive = higher.
Outcome codes: Y = active, N = inactive

[
  {
    "COMPOUND": "CC1(C)CN=C(Nc2ccc(Cl)cc2)S1",
    "ASSIGNED_LABEL": "N"
  },
  {
    "COMPOUND": "CN(C)/C(=N\\C#N)NCc1ccccc1",
    "ASSIGNED_LABEL": "N"
  },
  {
    "COMPOUND": "CC(C)(C)OC(=O)N1CC(COS(C)(=O)=O)c2ccc(O)cc21 (stereo not drawn)",
    "ASSIGNED_LABEL": "N"
  },
  {
    "COMPOUND": "CSc1nc(Cl)c2c(n1)Sc1ncnn1C2O (stereo not drawn)",
    "ASSIGNED_LABEL": "N"
  },
  {
    "COMPOUND": "O=C1NCN(c2ccccc2)C12CCN(CC1COc3ccccc3O1)CC2 (stereo not drawn)",
    "ASSIGNED_LABEL": "N"
  },
  {
    "COMPOUND": "CC/C=N\\N1C(N)=C(C#N)C(C#N)(C#N)C1CC (stereo not drawn)",
    "ASSIGNED_LABEL": "N"
  },
  {
    "COMPOUND": "COc1cccc2c1C(=O)c1c(O)c3c(c(O)c1C2=O)C[C@@](O)(C(C)=O)C[C@@H]3OC1CC(N(C)C)C(O)C(C)O1 (stereo partly drawn)",
    "ASSIGNED_LABEL": "Y"
  },
  {
    "COMPOUND": "Clc1ccc(CNc2nc(Cl)c3nc[nH]c3n2)cc1Cl",
    "ASSIGNED_LABEL": "N"
  },
  {
    "COMPOUND": "CC1(C)CC2(C)OC(=N)C1(C#N)C2(C#N)C#N (stereo not drawn)",
    "ASSIGNED_LABEL": "N"
  },
  {
    "COMPOUND": "COc1cc(C2C3=C(CCCC3=O)N(c3ccc(C)cc3)C3=C2C(=O)CCC3)c([N+](=O)[O-])cc1OC",
    "ASSIGNED_LABEL": "N"
  },
  {
    "COMPOUND": "COCN1C(=O)[C@@H]2C[C@@H](OC/C=C/CBr)CN2C(=O)c2ccccc21",
    "ASSIGNED_LABEL": "N"
  },
  {
    "COMPOUND": "CN(C)CCCNC(CC#N)CCC#N (stereo not drawn)",
    "ASSIGNED_LABEL": "N"
  },
  {
    "COMPOUND": "Oc1cn(-c2ccc(Cl)cc2)nc1-c1n[nH]c(=S)n1-c1ccccc1",
    "ASSIGNED_LABEL": "N"
  },
  {
    "COMPOUND": "COC(=O)C(CNC(=O)/C=C/c1ccc(OC(C)=O)c(OC(C)=O)c1)NC(=O)/C=C/c1ccc(OC(C)=O)c(OC(C)=O)c1 (stereo not drawn)",
    "ASSIGNED_LABEL": "N"
  },
  {
    "COMPOUND": "C#Cc1cccc(NC(=O)/C=C\\C(=O)O)c1",
    "ASSIGNED_LABEL": "N"
  },
  {
    "COMPOUND": "O=C1CCC[C@]2(CCCC(=O)N2)C1",
    "ASSIGNED_LABEL": "N"
  },
  {
    "COMPOUND": "C#C[C@]1(O)CC[C@H]2[C@@H]3CCC4=C/C(=N/OC(=O)c5cccc6c(=O)c7ccccc7[nH]c56)CCC4[C@H]3CC[C@@]21CC (stereo partly drawn)",
    "ASSIGNED_LABEL": "N"
  },
  {
    "COMPOUND": "CCn1c2c(c3c(C(=O)OC)c(O)ccc31)C(=O)c1ccccc1C2=O",
    "ASSIGNED_LABEL": "N"
  },
  {
    "COMPOUND": "CC(=O)O[C@]12CCCCC1C1(O)C(O)CCCCC12 (stereo partly drawn)",
    "ASSIGNED_LABEL": "N"
  },
  {
    "COMPOUND": "Cc1nc2ccc(NC(=S)Nc3ccccc3)cc2c(=O)n1-c1ccccc1",
    "ASSIGNED_LABEL": "N"
  },
  {
    "COMPOUND": "Cc1ccc(Nc2nc(C)c(C(=O)CC(=O)C(=O)Nc3c(C)cccc3C(C)(C)C)s2)cc1",
    "ASSIGNED_LABEL": "N"
  },
  {
    "COMPOUND": "O=[N+]([O-])/C(C(Cl)=C(Cl)Cl)=C(\\N1CCCCC1)n1nnc2ccccc21",
    "ASSIGNED_LABEL": "N"
  },
  {
    "COMPOUND": "Cc1nn2c(C(=O)N/N=C/c3ccc([N+](=O)[O-])cc3)c(C)nc2s1",
    "ASSIGNED_LABEL": "N"
  },
  {
    "COMPOUND": "Cc1cc(C)c(C)c(-n2[nH]c(=O)n(C)c2=O)c1C",
    "ASSIGNED_LABEL": "N"
  },
  {
    "COMPOUND": "O=C(O)c1nc2ccccc2nc1NCc1ccc(F)cc1",
    "ASSIGNED_LABEL": "N"
  },
  {
    "COMPOUND": "CN(C)C(=S)N1C(=S)N(c2ccccc2)C(=N/c2ccccc2)/C1=N\\c1ccccc1",
    "ASSIGNED_LABEL": "N"
  },
  {
    "COMPOUND": "CC(=O)O[C@H]1C(=O)[C@@]2(C)[C@H]([C@H](OC(=O)c3ccccc3)[C@]3(O)C[C@H](OC(=O)[C@H](O)[C@@H](NC(=O)OC(C)(C)C)c4ccco4)C(C)=C1C3(C)C)[C@]1(OC(C)=O)CO[C@@H]1C[C@@H]2O",
    "ASSIGNED_LABEL": "Y"
  },
  {
    "COMPOUND": "CC1(O)C(=O)OC2CC([C@]3(O)CCC4[C@@H]5C[C@H]6O[C@]67[C@@H](O)C=CC(=O)[C@]7(C)C5CC[C@@]43C)C1(C)C2 (stereo partly drawn)",
    "ASSIGNED_LABEL": "N"
  },
  {
    "COMPOUND": "O=C(c1ccccc1)n1c2ccc(Br)cc2c2nc3ccccc3nc21",
    "ASSIGNED_LABEL": "N"
  },
  {
    "COMPOUND": "O=C(O)c1cc(-c2ccc3c(O)c(O)ccc3c2)ccc1O",
    "ASSIGNED_LABEL": "N"
  },
  {
    "COMPOUND": "CC1(C)CC(N2CCN(C3CC(C)(C)NC(C)(C)C3)CC2)CC(C)(C)N1",
    "ASSIGNED_LABEL": "N"
  },
  {
    "COMPOUND": "COC(=O)C(C(=O)C(=O)Nc1c(C)cccc1C)c1cnc2ccccc2n1 (stereo not drawn)",
    "ASSIGNED_LABEL": "N"
  },
  {
    "COMPOUND": "O=C(Nc1cccc(Cc2cccc(NC(=O)c3ccccc3)c2)c1)c1ccccc1",
    "ASSIGNED_LABEL": "N"
  },
  {
    "COMPOUND": "CC(C)(C)c1cc(C2COC(=O)COCC(=O)OCCOCCOCCO2)cc(C(C)(C)C)c1O (stereo not drawn)",
    "ASSIGNED_LABEL": "N"
  },
  {
    "COMPOUND": "Cc1c(S(=O)(=O)c2ccccc2)c(N)n(Cc2ccccc2)c1C",
    "ASSIGNED_LABEL": "N"
  },
  {
    "COMPOUND": "OC1(c2ccc(Cl)cc2)c2ccccc2C2=Nc3ccccc3CN21 (stereo not drawn)",
    "ASSIGNED_LABEL": "N"
  },
  {
    "COMPOUND": "COc1cc2c3cc1Oc1c(OC)c(OC)cc4c1[C@@H](Cc1ccc(O)c(c1)Oc1ccc(cc1)C[C@@H]3N(C)CC2)N(C)CC4.c1ccccc1",
    "ASSIGNED_LABEL": "N"
  },
  {
    "COMPOUND": "C=C(C(=O)OC)[C@@H]1C[C@@H](OC(C)=O)C2=C[C@H](C[C@@]3(C)O[C@@H]3C3=CC(C)=C(O3)[C@H]1OC(C)=O)OC2=O",
    "ASSIGNED_LABEL": "N"
  }
]
